Quick list: VQIINK Inhibition IC50 per entry.
# EXPERIMENTAL_SYSTEM: Ac-VQIINK-NH2 (SEQ ID NO: 23) (N-terminal acetyl (Ac); C-terminal amide (NH2))
# EXPERIMENT: cell-based or functional assay
Square brackets hold non-standard residues; d marks the D form. Ends that are not written are not given here.
Your answer should be a plain number; it is taken to be in µm.

Solved cases below.
[dF][dH][dI][dR][dL][dE][dW][dH] [fhirlewh]	2.01
[dW][dK][dL][dK][dL][dR][dW] [wklklrw]	5.33
[dT][dK][dI][dR][dI][dH][dY] [tkirihy]	4.77

Q: Can you look up the measured VQIINK Inhibition IC50 of [dL][dK][dI][dL][dI][dH][dY][dH] [lkilihyh] for me?
Result: 1.41
